B1: tRNA (parent)
chain: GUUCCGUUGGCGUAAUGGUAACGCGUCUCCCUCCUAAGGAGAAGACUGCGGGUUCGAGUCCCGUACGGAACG

# Variants of: B1
# Assay comment: yeast fitness relative to wild type (ratio to wild type); higher = fitter; tRNA-Arg(CCU), competitive growth, 37 C, YPD
Fewer inactive variants are shown than the library holds.
Measure name: yeast fitness

{"columns": ["Residue string", "Result"],
 "data": [
  ["GUUCCGUUGGCGUAAUGGUAACGCGUCUUCCUCCUAAGGAGGGGACUGCGGGUUCGAGUCCCGUACGGAACG", "≤ 0.5"],
  ["GUUCCGUUGGCGUAACGGUAACGCGUUUCCCUCCUAAGGAGAAGACUGCGGGUUCGAGUCCCAUGCGGAACG", "≤ 0.5"],
  ["GUUCCGUUGACGUAAUGGAAACGCGUCUCCCUCCUAAGGACAAGACUGCGGGUUCGAGUCCCGUACGGAACG", "≤ 0.5"],
  ["GUUCCAUUGGCGUAAUGGUAACGCGUCUUCCUCCUAAGGAGAAGACUGCCGGCUCGUGUCGCGUACGGAACG", "≤ 0.5"],
  ["GUUUCGUUGGCGUAAUGGUAACGCGUCUCCCUCCUAAGGAGCCGACUGUGGGUUCGAGUCCCGUACGGACCG", "≤ 0.5"],
  ["GUUCCGUUGACGUAAUGGUAUCGCGUCUCCGUCCUAAGGAGAAGACUGCGGGUUCGAGUCCCGUACGGAACG", "≤ 0.5"],
  ["GUUCCGGUGGCGUAAUGGUAACGCGUCUGCCUCCUAAGGAGAAGAUUGCGGGUUCGAGUCCCGUUCGGAACG", "≤ 0.5"],
  ["GUUCCGUCGGCGUAAUCGUAACGCGCCUCCCUCAUAAGGAGAAGCCUACGGGUUCGAGUCCCGUACGGAACG", "≤ 0.5"],
  ["GUUCCGUUCGCGUAACGGUAACGCGUCUCACUCCUAAGGACAAGCGUGCGGGUUCGAGUCCCGUACGGAACG", "≤ 0.5"],
  ["GUUCUGUUGGCGUAAUGGUAACGCGUCCUCCUCCUAAGGAGAAGACUGCGGGUUCGAGUCCCCUUCGGAACG", "≤ 0.5"],
  ["GUUCCGUUGGCGUUAUGGUAACGCGACUCCCUCCUAAGGAGAAGACUGCGGGUUCGAGUCCGGUACGGAACG", "≤ 0.5"],
  ["GUUCCAUCGGCGUAAUGGAAACGCGUCUCCCUCCUAAGGAGAAGACUGCGGGCUCGAGUCCCGUACGGAACG", "≤ 0.5"],
  ["GUUCCGUUGGCGUAAUGGUACCGCGUCUCCCUCGUAAGGAGAAGACUCCGGGUUCGAGUCCCGUACGGAACG", "≤ 0.5"],
  ["GUUCCGUUGGCGUAAUGGUAACGCGUCUCCCUCCUAAGGAAAAGACUGCGGGUUUGAGACCCGUACGGAUCG", "≤ 0.5"],
  ["GUUCCGUUGGCGUUAUGGUACUGCGUCUCCCUGCUAAGGAGAAGGGUGCGGCUUCGAGUCCCGUACGGAACG", "≤ 0.5"],
  ["GUUCCGUUGACGUAAAGGUAACGCGUCUCCCUCCUAAGCAGAAGACUGCGGGUUCGAGUCCCGUACGGAACG", "≤ 0.5"],
  ["GUUCCGUUGGCGUAAUGGUAACGCGUCUUCCUCCUAAGGAGAAGACUGCGGGUUCGAGUCCCGUAGGGACCG", "≤ 0.5"],
  ["GUUCCGUUGGCGUAAUGGUAACGCGUCUCUCACCUUUGGAGAAGACUGCGGGUUCGAGUCCUGUACGGAACG", "≤ 0.5"],
  ["GUUCCGUUGGCGUAAUGGUAAGGCCUCUCCCUCCCAGGGAGAAGACUGCGGGUUCGAGUCCCGUUCGGAACG", "≤ 0.5"],
  ["GUUCCGUUGGCGUAAUGGUAACGCGUCUCCCUCCUAAGGAGACGACUGAGGGUUCGAGUCCCGUCCGGAACG", "≤ 0.5"],
  ["GUUCCGUUGGCCUAAUGGUAACGCGUCUCCCUCCUAAGGAGAAGACUGCGGGUUCGAGUCCCCUACGGAACG", 0.699],
  ["GUACCGUUGGCCUACUGGAAACGCGUCUCCCUCUUAAGGAGAAGACUGAGGGUUCGAGUCCCGUACAGAACG", "≤ 0.5"],
  ["GUUCCGUUGGCGUAAUGGUAACGCGUCUCCCUCCUAAGGAGAAGACUGCGGGUUCGAGUCCCGUAGUGAACG", 0.63],
  ["GUUCUGUUGGCGUAAUGGUAACGCGUAUCCCUGCUAAGGAGAAGCCUGCCGGUUCGAAUCCCGUACGGAACG", 0.514],
  ["GUUCCCUUGGCGUAAUGGUAACGCGUCUCCCUCCUAAGGAGAAGACUGCGGGUUCAAGUGCCGUACGGAACG", "≤ 0.5"],
  ["GUUCCGUUGGCGUAAUGGUACCGCGUCUCCCUUCUAAGGAGAAGACUGCGGGUUCGAGUCACGUACGGACCG", 0.578],
  ["GUUCCGUUGGCGUAAUGGUCACGCGUCUGCCUCCUAAGGAGAAGACUGCGAGUUCGAGUCCCGUACGGAACG", 0.646],
  ["GUUCCGUUGGCGUAAUGGUGACGCGUCUGCCUCCUAAGGAGAAGACUGCGGGUUCGAGUCCCCUACGGAACG", "≤ 0.5"],
  ["GUUCCGCUGGCGUAAUGGUAACGCGUCUCCCUCCUAAGGAGAAGACUCCGGGUUCGAGUCCCGUACGGAACG", 0.828],
  ["GUUCCUUUGGCGUAAUGGUAACGCGUCUCCCUCCUAAGGAGAAGACUGCGGGUUCGAGUCCCGUACGGACCG", 0.813],
  ["GUUCCGUUGGCGCAAUGGUAACGCGUCUCCCUCCUAAGGAGAAGACUGCGGGUUCGAGUCCCGUACGCAACG", 0.877],
  ["GUUCCAUUGGCGUAAUGGUAACGCGUCUCCUUCCUGAGGAGAAGACUGCGGGUUCGAGUCCCGUACGGAACG", "≤ 0.5"],
  ["GUUCCGUUGGCGUAAUGGUAACGCGUCUCCCUCCUAAGGAGAAGACCGCGGGCUCGAGUCCCGUACGGAACG", 0.795],
  ["GUUCCGUUGGCGUAAUGGUAACGCGUCUCCCUCCUAAGGAGAAGACUGCGGGUUCGAAUCCCGUAUUGAACG", 0.543],
  ["GUUCAGUUGGCGUAAUGGUAACGGGACUGCCACCUAAGGAGAAGACUGCGGGUUCGAGUCCCGUUCGGAACG", "≤ 0.5"],
  ["GCUCCAUUGGCGUAAUGGUUACGCGUCUCUCUCCUUAGGAGAAGACUGAGGGUUCGAGUCCCGUACGGAACG", "≤ 0.5"],
  ["GUUCCGUUGGCGUAAUGGUAACGCAUCUCCCUCCUAAGGAGAAGACUGGGGGUUCGAGUCCCGUACGGAACG", 0.981],
  ["GUUCCGUCGGCGUAAUGGUAACGCGUCUCCGUCCUAAGGAGGAGACUGCGGGUUCGAGUCCCGUACGGAACG", 0.624],
  ["GUUCCGUUGGCGUAAUGGUAAAGCGUCUCCCUCCUAAGGCGAAGACUGCCGGUUCGAGUCCCGUACCGAACG", "≤ 0.5"],
  ["GUUGCGUUGGCGUAGUGGUAACGCGUCUCCCUCCUAAGGAGAAGACUGCGGGUUCGAGUCCCGUACGGAACG", 0.732],
  ["GUUCCGGUGGCGUAAUGGUAACGUGUCUCCCUCCUAAGGAGAAGGCUGCGGGUUCGAGUCCCGUACGGAACG", 0.601],
  ["GUUCCGUUGGUGUAAUGGUAAAGCGUCUGCCUUCUAAGGAGAAGACUGCGGGUUCGAGUCCCGUACGGACCG", 0.551],
  ["GUUCCGUUGGCGUAAUGGUAACGCGUCUGCCUCCUAAGGAGAAGACUGCGGGUUCGAGUCCCGUACGUAACG", 0.68],
  ["GUUCCGUUGGCAUAAUGGUAUCGCGUCUCCCUCCUAAGGAGAAGACUGCGGGUUCGAGUCCCGUACGGAACG", 0.729],
  ["GUUCAGUUGGCGUAAUGGUAACGGGUCUCCCUCCUGAGGAGAAGACUGCGGGUUCGAGUCCCGUUCGGAACG", "≤ 0.5"],
  ["GUUCCGUUGGUGUAAUGGUUACGCGCCUCCCUCCUAAGGAGAAGACUGCGGGUUCGAGUCCCGUACGGAACG", "≤ 0.5"],
  ["GUUCCGUUGGCGUAAUGGUAACGCGACACCUUCCUAAGGAGAAGACUGCGGGUUCGAGUCCCCUACGGAACG", "≤ 0.5"],
  ["GUUCCGUUGCUGUAAUGGUAACGUGUCUCCCUGCUUAGGAGAAGACUGCGGGUUCGAGUCCCGUACGGAACG", "≤ 0.5"],
  ["GUUCGGUUGGCGUAAUGGUAACGCGUGUCCCUCCUAAGGAGAAGAGUGCGGGUUCGAGUCCCGUGCGGAACG", "≤ 0.5"],
  ["GUUCCGGUGGCGUUAUGGAAAUGCGUCUCCCUCCUAAGGAGAAGACUGCGGGUUCGAGUCACGUACGGAACG", "≤ 0.5"],
  ["GUUACGUUGGCGUAAUGGUAACGCGUCUCGCUCCUAAGGAGAAGACUGCGGGUUCGAGUCCCGUACGGAACG", 0.661],
  ["GUUCAGUUGGCGUAAUGGUAACGCGUCUUCCUCCUAAGGAGAAGACUGCGGGUUCGGGCCCCGUACGGAACG", "≤ 0.5"],
  ["GUUCCGUUGGCGUAAUGGUAACGCGUCUCCCUCCUAAGGUGAAGACAGCGGGUUCGAGUCCCGUACGGAACG", 0.856],
  ["GGUCCGUUGGGGUAAUGGUAACGCGUCUCCCUCCUAAGGAGAAGACUGCGGGUUCGAGUCCCGUACGGAACG", 0.703],
  ["GUUCCGUUGGCGUAAUAGUAACGCGUCUCCCUCCUAAGGAGAAGACUGCGGGUUCGAGUCGCGUACGGAACG", 0.573],
  ["GUUCCGUUGGCGUAAUGGUCACGCGUCUCCCUCCUAAGGAGAAGUCUGCGGGUUUGAGUCCCGUACGGAACG", "≤ 0.5"],
  ["GUUCCGUUGGCGUAAUGGUAACGCGUAUCCCUCCUAUGGAGAAGACUGCGGGUUCGAGUCCCGUACGGAUCG", 0.548],
  ["GUUCCGUUGGCGUAAUGGUAACGAGUCUCCCUCCUAAGGGGAAGACUGCGGGUUCGAGUCCCGUAUGGAACG", "≤ 0.5"],
  ["GUUCCGUUGGAGUAAUGGUAAUGCGUCUCCCUCCCAAGGAGAAGACUGCGGGUUCGAGUCCCGUACGGAACG", "≤ 0.5"],
  ["GCUCGGUUGGCGUAAUGGUAACGCGUCUCCCUGCUAAGGAGAAGACUGCGGGUUCGAGUACCGUACCGAACG", "≤ 0.5"],
  ["GUUCCGUCGGUGUAAUGGUAACGGGUCUCCCUCCUAAGGAGAAGCCUGCGGGUUCGAGUCCCGUACGGAACG", 0.629],
  ["GUUCCGCUGGCGUAAUGGUAACGCGUCUCCCUCCUAAGGAGAAGACUGCGGGUUCGAGUCCGGUACGGAACG", 0.61],
  ["GUUCAGUUGGCGUAAUGGUAUCGUGUGUCCCUCCUAAGGAGAAGACUGCGGGUUCGAGUCCCGUACGGAGCG", "≤ 0.5"],
  ["GUUCCGUUGGCGUAAUGGUAGCGCGUCUCCCUCCUAAGGAGAAGACUGCGGGUUCGAGUCACGUACAGAACG", 0.532],
  ["GUUCCGUUGGCGUAAUGGUAACGCGUCUCCCUCCUAAGGAGAACGCUGCGGGUUCGAGUCCCGUACGGAACG", 0.958],
  ["GUCCUGUUGGCGUAAUGGUAACGCGUCUCCCUCCUAAGCAGAAGACUGCGGGUUCGAGUCCCGUACGGAACG", 0.57],
  ["GUUCCGUUGGCGUAAUGGUAACGGGUCUCCCUCCUAAGGAGAAGACUGCGGGUUGGAGUCCUGUACGGAACG", "≤ 0.5"],
  ["GUUCUGUUGGCCUAAUGGUAACGCGUCUCCCUCCUAAGGAGGAGACUGCGGGUUAGAGUCCAGUACGGAACG", "≤ 0.5"]
]}

Data origin, for the record: the RNAGym collection of RNA variant scans (doi:10.1126/science.aae0568)
